Entries and their composite z-score
target: E3 ubiquitin-protein ligase XIAP (Homo sapiens) (UniProt P98170); assay: small molecules binding XIAP protein – biophysical, small-molecule microarray, fluorescence 635 nm, primary screen (AID 1181); conditions: higher = more signal;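 note: score merges 667 nm emission and signal to noise over triplicate slides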
Sequence (P98170 whole entry, looked up): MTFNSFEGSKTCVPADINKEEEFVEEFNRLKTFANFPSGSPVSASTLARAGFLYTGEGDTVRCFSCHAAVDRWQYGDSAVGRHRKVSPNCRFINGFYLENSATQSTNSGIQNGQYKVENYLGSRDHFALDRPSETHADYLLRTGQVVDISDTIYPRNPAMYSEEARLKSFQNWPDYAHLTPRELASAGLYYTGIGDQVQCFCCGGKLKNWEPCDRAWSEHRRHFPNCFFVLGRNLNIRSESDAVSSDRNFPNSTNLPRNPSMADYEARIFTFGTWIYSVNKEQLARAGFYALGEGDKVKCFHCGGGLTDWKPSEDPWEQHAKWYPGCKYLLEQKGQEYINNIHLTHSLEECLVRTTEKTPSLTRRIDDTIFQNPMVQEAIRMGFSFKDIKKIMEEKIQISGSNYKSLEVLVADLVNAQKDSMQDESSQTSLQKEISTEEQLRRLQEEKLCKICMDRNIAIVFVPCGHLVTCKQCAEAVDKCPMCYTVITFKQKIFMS
Respond with the number and no other words.

Please review the following examples before continuing.
{"columns": ["compound", "endpoint-result"],
 "data": [
  ["COc1ccc([Si](C)(C)[C@@H]2[C@@H](CCO)O[C@]3(C(=O)N(Cc4cccc(N5C(=O)COc6ccccc65)c4)c4ccccc43)[C@H]2C)cc1", 0.0424],
  ["COc1cccc(C)c1NC(=O)O[C@H]1[C@H](OC(=O)Nc2ccccc2)[C@H](OC(=O)Nc2ccccc2)[C@@H](OC)O[C@@H]1CO", 0.0744],
  ["C[N+](C)(C)CCCCCCNC(=O)[C@H]1C[C@H]2C(=O)N3CCC[C@H]3C(=O)N2[C@H]1c1cccc(OCCO)c1", 0.135]
]}

Check the records and state composite z-score for `COc1cc2c(cc1OC)CN(C(=O)[C@@H]1[C@H]3C(=O)O[C@H](c4ccccc4)[C@H](c4ccccc4)N3[C@H](c3ccc(O)cc3)[C@@]13C(=O)Nc1ccc(C#CCNC(N)=O)cc13)CC2` -0.0663

Check the records and state composite z-score for `C[C@H]1ON(c2ccccc2)[C@@H](c2ccccc2)[C@@H]1C(=O)N1C(=O)OC[C@@H]1c1ccccc1` -0.123

Check the records and state composite z-score for `COC(=O)C(CC#Cc1ccc2c(c1)[C@]1(C(=O)N2)[C@H](C(=O)N2CCc3cc(OC)c(OC)cc3C2)[C@H]2C(=O)O[C@H](c3ccccc3)[C@H](c3ccccc3)N2[C@@H]1c1ccc(O)cc1)C(=O)OC` -0.167

Check the records and state composite z-score for `OCc1ccc(-c2cc[n+](Cc3cccc(OC(F)(F)F)c3)cc2)cc1` 0.222

====

biological target: Luciferin 4-monooxygenase (Photinus pyralis) (UniProt P08659); experiment: inhibition of purified Photinus pyralis luciferase – biochemical, luminescence, purified enzyme, 2006 set, primary screen (AID 1141); conditions: purified firefly luciferase, SteadyGlo luminescence, 30 min; higher = more signal, called active from +8 up or from −8 down;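 note: cell-free assay with purified firefly luciferase at 100 ng per well in PBS; test concentration not given here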
Sequence (P08659 whole entry, looked up): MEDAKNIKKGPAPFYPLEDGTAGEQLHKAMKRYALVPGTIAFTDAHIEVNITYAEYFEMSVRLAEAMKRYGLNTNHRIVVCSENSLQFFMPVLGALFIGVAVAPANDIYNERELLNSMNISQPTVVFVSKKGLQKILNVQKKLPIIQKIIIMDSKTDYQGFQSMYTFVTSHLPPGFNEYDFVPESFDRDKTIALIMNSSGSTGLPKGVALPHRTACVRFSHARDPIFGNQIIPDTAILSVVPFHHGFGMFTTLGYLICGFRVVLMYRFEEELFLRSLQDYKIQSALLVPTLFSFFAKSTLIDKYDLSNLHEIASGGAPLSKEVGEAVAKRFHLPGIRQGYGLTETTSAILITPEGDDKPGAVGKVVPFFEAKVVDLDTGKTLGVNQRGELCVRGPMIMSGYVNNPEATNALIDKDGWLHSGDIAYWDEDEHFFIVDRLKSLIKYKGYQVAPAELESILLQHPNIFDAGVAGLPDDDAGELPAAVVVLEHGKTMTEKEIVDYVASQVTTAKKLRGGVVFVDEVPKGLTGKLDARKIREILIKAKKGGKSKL
outcome-measure: z-score
Respond with the number and no other words.

Please review the following examples before continuing.
{"columns": ["molecule", "z-score"],
 "data": [
  ["COCCOC(=O)N1C(=O)[C@@]2(c3cc(C#Cc4ccc(OC)cc4)ccc31)[C@H](c1ccc(OCCO)cc1)N1[C@H](c3ccccc3)[C@H](c3ccccc3)OC(=O)[C@H]1[C@@H]2C(N)=O", -0.35],
  ["C=CCNC(=O)[C@@H]1[C@H]2C(=O)O[C@H](c3ccccc3)[C@H](c3ccccc3)N2[C@H](c2ccc(O)cc2)[C@@]12C(=O)Nc1ccc(C#CCCO)cc12", 1.05],
  ["C[C@]12C(=O)N(CCCCCO)[C@@H]3C(=O)N(c4ccc(Cl)cc4)CC=CC31O[C@@H]1/C=C\\CCCOC(=O)C12 (stereo not given in full)", -0.576]
]}

Check the records and state z-score for `COCCOC(=O)N1C(=O)[C@@]2(c3cc(C#CC4(O)CCCCCC4)ccc31)[C@H](C(=O)N1CCN(c3ncccn3)CC1)[C@H]1C(=O)O[C@H](c3ccccc3)[C@H](c3ccccc3)N1[C@@H]2c1ccc(O)cc1` -1.46

Check the records and state z-score for `O=C1O[C@H](c2ccccc2)[C@H](c2ccccc2)N2[C@H]1[C@@H](C(=O)N1CCN(c3ncccn3)CC1)[C@]1(C(=O)Nc3ccc(C#CCCO)cc31)[C@H]2c1ccc(OCCO)cc1` -0.713

====

target: Torsin-1A-interacting protein 2 (Homo sapiens) (UniProt Q8NFQ8); assay: small molecules binding lysate-expressed LULL1 – cell lysate, human LULL1 lysate, 635/667 nm fluorescence, primary screen (AID 1092); conditions: small-molecule microarray, hLULL1 lysate binding, 635 nm fluorescence; higher = more signal;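 note: probe is lysate of COS7 cells overexpressing human LULL1; score merges per-feature 667 nm fluorescence with signal-to-noise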
Sequence (Q8NFQ8 whole entry, looked up): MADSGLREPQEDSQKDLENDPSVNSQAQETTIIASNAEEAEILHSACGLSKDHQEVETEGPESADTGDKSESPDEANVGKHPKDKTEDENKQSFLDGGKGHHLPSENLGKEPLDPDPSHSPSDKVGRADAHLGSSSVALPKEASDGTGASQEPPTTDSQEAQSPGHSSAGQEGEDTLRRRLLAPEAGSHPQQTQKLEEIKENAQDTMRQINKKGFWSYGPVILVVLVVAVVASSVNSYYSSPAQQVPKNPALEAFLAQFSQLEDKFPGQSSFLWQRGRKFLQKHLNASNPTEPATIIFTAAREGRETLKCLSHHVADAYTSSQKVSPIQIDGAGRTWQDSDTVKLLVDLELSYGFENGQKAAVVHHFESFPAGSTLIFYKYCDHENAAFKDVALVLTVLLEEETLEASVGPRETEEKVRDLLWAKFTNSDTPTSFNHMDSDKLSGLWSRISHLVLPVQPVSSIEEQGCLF
outcome-measure: composite z-score

Please review the following examples before continuing.
{"columns": ["compound", "composite z-score"],
 "data": [
  ["CCC[C@@H]1C[C@@]1(CCC)[C@@H](NC(=O)c1ccco1)c1ccc(Cl)cc1", -0.825],
  ["CC(C)CNC(=O)[C@@]1(c2ccc([N+](=O)[O-])cc2)CC(=O)N(C(C)C)[C@@H]1c1ccc(CO)cc1", 2.03],
  ["C[C@]12C(=O)N(CCCCCO)[C@@H]3C(=O)N(c4ccc(Cl)cc4)CC=CC31O[C@@H]1/C=C\\CCCOC(=O)C12 (some centres undefined)", -1.43]
]}

Turning now to a further record.
Check the records and state composite z-score for CN1C(=O)C2C=CC(C(O)c3cccc4ccccc34)N(NC(=O)OC(C)(C)C)C2C1=O (centres undefined) 2.63

====

assay: plasmodial surface anion channel blockers, osmotic lysis – cell-based, P. falciparum Indochina, OD700, 18 h, primary screen (AID 1157); conditions: P. falciparum Indochina infected erythrocytes, osmotic lysis OD700, 18 h; higher = more signal, called active from +8 up or from −8 down
z-score of 0.5 or higher: fulfilled. Under 0.5: not fulfilled.

Recorded results for 4 compounds are shown here.
{"columns": ["compound-smiles", "category-label"],
 "data": [
  ["C=CC[C@]1(C(=O)N2CCOCC2)N=C(c2ccc(OCCCO)cc2)O[C@H]1c1ccccc1CN=[N+]=[N-]", "fulfilled"],
  ["C=CC[C@@]1(C(=O)NCCN2CCOCC2)N=C(c2ccc(OCCCO)cc2)O[C@@H]1c1ccccc1", "fulfilled"],
  ["C=CCOC(=O)[C@H]1[C@@H]2C(=O)O[C@@H](c3ccccc3)[C@@H](c3ccccc3)N2[C@@H](c2ccc(OCCOC(=O)[C@H]3C[C@H]4C(=O)N[C@@H](CCCCN(C)C)C(=O)N4[C@H]3c3ccc(O)cc3)cc2)[C@]12C(=O)Nc1ccccc12", "fulfilled"],
  ["COCCCNC(=O)[C@@H]1c2ccccc2C(=O)N(Cc2cc(F)cc(C(F)(F)F)c2)[C@H]1c1ccc(CO)cc1", "not fulfilled"]
]}

Attention now turns to another entry.
Can `COc1ccc([Si](C)(C)[C@H]2[C@H](CC(=O)N3CCC[C@H]3CO)O[C@@]3(C(=O)N(Cc4ccc(N5C(=O)c6cccc7cccc5c67)cc4)c4ccccc43)[C@@H]2C)cc1` be said to have z-score at or above 0.5? fulfilled

====

test: compound effects on lung adenocarcinoma cell viability – A549, calcein-AM fluorescence, 48 h, basal, profiling panel (AID 1162); settings: higher = more signal; note: test concentration not given here
outcome-measure: z-score
Respond with the number and no other words.

{"columns": ["molecule", "endpoint-result"],
 "data": [
  ["CCCc1cc2c(n1Cc1ccc(OC)cc1)C(C)C1CN(C(=O)c3ccccc3)C(C)(C(=O)OC)C21 (stereo not drawn)", -0.923],
  ["COc1ccc([Si](C)(C)[C@@H]2[C@@H](CCO)O[C@]3(C(=O)N(Cc4ccccc4)c4ccc(N5CCCCC5=O)cc43)[C@H]2C)cc1", -0.887],
  ["CC(=O)NCCCC[C@@H]1NC(=O)[C@@H]2C[C@H](C(=O)NCCCC[N+](C)(C)C)[C@H](c3cccc(OCCO)c3)N2C1=O", -1.05]
]}

Check the records and state z-score for `C=C[C@@H](O)[C@H]1CC(c2ccccc2)=NO1` 0.721

Check the records and state z-score for `COC(=O)[C@@]1(Cc2ccccc2)[C@H]2c3cc(C(=O)N4CCCC4)n(CCO)c3C[C@H]2CN1C(=O)c1ccccc1` -0.258

Check the records and state z-score for `COC(=O)[C@@]1(Cc2ccc(F)cc2)[C@@H]2[C@@H](CC(=O)[C@H]2CC(=O)C(=O)N2CCCC2)CN1C(=O)c1ccccc1` -0.974

Check the records and state z-score for `COCCCNC(=O)[C@@]1(Cc2ccccc2)COC(c2ccc(OCCCO)cc2)=N1` 0.654

Check the records and state z-score for `CN(C)CCCCNC(=O)[C@H]1C[C@H]2C(=O)N[C@@H](CCCC[N+](C)(C)C)C(=O)N2[C@H]1c1cccc(OCCO)c1` -0.532

====

tested on: Chordin-like protein 2 (CHRDL2); experiment: compounds binding chordin-like 2 – biochemical, small-molecule microarray, 635 nm fluorescence, primary screen (AID 1126); conditions: fluorescence 635 nm, higher = more signal;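 note: printed compound slides probed with Chrdl2 protein at 4 µg/mL for 1 h at 4 C; score merges 667 nm emission intensity with signal to noise over three replicate slides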
Entries and their composite z-score
Respond with the number and no other words.

Please review the following examples before continuing.
{"columns": ["compound", "target-or-test-system", "endpoint-result"],
 "data": [
  ["C=CCC(OC(C)=O)[C@@H]1[C@@H](N(Cc2ccc(-c3ccccc3)cc2)C(=O)c2cccc3ccccc23)c2cc(OCCCO)ccc2N1C(=O)c1ccc2ccccc2n1 (stereo not given in full)", "Chordin-like protein 2 (CHRDL2)", 0.165],
  ["CC(=O)NCCCC[C@@H]1NC(=O)[C@@H]2C[C@H](C(=O)NCCCC[N+](C)(C)C)[C@H](c3cccc(OCCO)c3)N2C1=O", "Chordin-like protein 2 (CHRDL2)", 0.349],
  ["C=C(COC)/C(=C/C[C@@H](OC(=O)c1ccncc1)c1cccc(OCCO)c1)c1cc(C(=O)OC)ccc1OC", "Chordin-like protein 2 (CHRDL2)", 0.699],
  ["COc1ccc(C(=O)Nc2ccc3c(c2)[C@]2(O[C@@H](CCO)[C@H]([Si](C)(C)c4ccc(OC)cc4)[C@H]2C)C(=O)N3Cc2ccccc2)cc1", "Chordin-like protein 2 (CHRDL2)", 0.845]
]}

Check the records and state composite z-score for COc1cc(C(O)C2C=CC3C(=O)NC(=O)C3N2Nc2ccc(Cl)cc2Cl)cc(OC)c1OC (stereo not given) -0.0696

Check the records and state composite z-score for C=CC[C@]1(C(=O)NCC(O)CO)N=C(c2ccc(OCCCO)cc2)O[C@H]1c1ccccc1N=[N+]=[N-] (stereo not given in full) -0.451

Values from PubChem BioAssay
